All values here come from PubChem BioAssay (NCI).

Test system: K-562 leukemia
Assay: NCI tumour cell line growth inhibition, 48 h
EXPERIMENTAL_ENDPOINT: TGI

>  <COMPOUND>
N#Cc1cc([N+](=O)[O-])ccc1NC(=O)/C(=N/N)C(C(=O)c1ccc(Cl)c(Cl)c1)C1OC(=O)c2ccccc21 (centres undefined)

>  <STUDY_TARGET>
K-562 leukemia

>  <EXPERIMENTAL_ENDPOINT>
TGI

>  <OBSERVED_MEASUREMENT>
> 100 µM

$$$$
>  <COMPOUND>
Nc1nc(N)c(N=O)c(OCC2CCCCC2)n1

>  <STUDY_TARGET>
K-562 leukemia

>  <EXPERIMENTAL_ENDPOINT>
TGI

>  <OBSERVED_MEASUREMENT>
> 100 µM

$$$$
>  <COMPOUND>
O=C(O)CC1OCC=C2CN3CCC45C6=CC(=O)C(=O)C([N+](=O)[O-])=C6NC4C1C2CC35 (centres undefined)

>  <STUDY_TARGET>
K-562 leukemia

>  <EXPERIMENTAL_ENDPOINT>
TGI

>  <OBSERVED_MEASUREMENT>
> 100 µM

$$$$
>  <COMPOUND>
C=CCCCC1CCCNC1=S (centres undefined)

>  <STUDY_TARGET>
K-562 leukemia

>  <EXPERIMENTAL_ENDPOINT>
TGI

>  <OBSERVED_MEASUREMENT>
> 100 µM

$$$$
>  <COMPOUND>
Cn1cnc(N2CCCC2)c(C#N)c1=O

>  <STUDY_TARGET>
K-562 leukemia

>  <EXPERIMENTAL_ENDPOINT>
TGI

>  <OBSERVED_MEASUREMENT>
> 100 µM

$$$$
>  <COMPOUND>
CC(C)(C)OC(=O)N/N=C(/N)Cc1ccccc1

>  <STUDY_TARGET>
K-562 leukemia

>  <EXPERIMENTAL_ENDPOINT>
TGI

>  <OBSERVED_MEASUREMENT>
> 100 µM

$$$$
>  <COMPOUND>
CS/C(C)=N/OC(=O)NCCCCNc1ccc(N=[N+]=[N-])cc1

>  <STUDY_TARGET>
K-562 leukemia

>  <EXPERIMENTAL_ENDPOINT>
TGI

>  <OBSERVED_MEASUREMENT>
> 100 µM

$$$$
>  <COMPOUND>
Cc1ccc(Sc2ccc(C)cc2[N+](=O)[O-])c([N+](=O)[O-])c1

>  <STUDY_TARGET>
K-562 leukemia

>  <EXPERIMENTAL_ENDPOINT>
TGI

>  <OBSERVED_MEASUREMENT>
> 100 µM

$$$$
>  <COMPOUND>
COc1cc(Oc2nc3c(N)cc(C(F)(F)F)cc3nc2-c2ccccc2)cc(OC)c1OC

>  <STUDY_TARGET>
K-562 leukemia

>  <EXPERIMENTAL_ENDPOINT>
TGI

>  <OBSERVED_MEASUREMENT>
6.6 µM

$$$$
